Data origin: paper PMC9482650

- testedSystem: T1, DLG3_2, Q92796
- T1 sequence (Q92796 221-321, limits assumed, looked up): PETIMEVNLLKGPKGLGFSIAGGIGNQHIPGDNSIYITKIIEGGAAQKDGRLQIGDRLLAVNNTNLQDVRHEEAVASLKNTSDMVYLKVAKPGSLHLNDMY
- protocolText: holdup assay
- Set-up: key: below the threshold = too weak to quantify, mostly under pKd 3.1 to 4
- conditionNotes: plain residues with an end cap or a label only (N-terminal biotin on a linker: ado-ado)
propertyMeasured: pKd

Examples with answers:
For the binder shown here, LSEFKAMDSI [CTNNA1, P35221] , give the reported pKd. 3.56

For the binder shown here, KSGKQTMLVV [TRIM29, Q14134;Q14134-2] , give the reported pKd. below the threshold

For the binder shown here, RHGSCVETSL [TMEM151B, Q8IW70] , give the reported pKd. 4.53

For the binder shown here, TSSMRGMDAV [RSRC2, Q7L4I2] , give the reported pKd. below the threshold

For the binder shown here, LPHPHSTTRV [NLGN2, Q8NFZ4] , give the reported pKd. 3.96

For the binder shown here, QMNQTLPVQV [EPHB3, P54753] , give the reported pKd. below the threshold

For the binder shown here, PKRSFIESNV [TANC1, Q9C0D5] , give the reported pKd. 4.77

For the binder shown here, QPCFNKLFPL [LPXN, O60711] , give the reported pKd. below the threshold

For the binder shown here, GSGAVEMESV [AQP6, Q13520] , give the reported pKd. below the threshold

For the binder shown here, ETQVTAETVI [TMEM225B, P0DP42] , give the reported pKd. 4.43

Others:
For the binder shown here, RRRESYSTTV [EVI5, O60447] , give the reported pKd. 5.44

For the binder shown here, FNSYSLTGYV [CLDN2, P57739] , give the reported pKd. below the threshold

For the binder shown here, SARSRLSSNL [HCN2, Q9UL51] , give the reported pKd. below the threshold

For the binder shown here, RRISSLESEV [GRIN2C, Q14957] , give the reported pKd. 5.27

For the binder shown here, HLRARKSEWV [GJD4, Q96KN9] , give the reported pKd. 4.33

For the binder shown here, TKGPRGPTRV [SAPCD1, Q5SSQ6] , give the reported pKd. 4.13

For the binder shown here, SKENVQETQI [LRRC4B, Q9NT99] , give the reported pKd. 4.69

For the binder shown here, PPYRHRNTVV [ERBB4, Q15303] , give the reported pKd. 4.79
